Recorded IC50 for the following molecules
# system: PLK1 (Homo sapiens)
# Sequence (P53350 whole entry): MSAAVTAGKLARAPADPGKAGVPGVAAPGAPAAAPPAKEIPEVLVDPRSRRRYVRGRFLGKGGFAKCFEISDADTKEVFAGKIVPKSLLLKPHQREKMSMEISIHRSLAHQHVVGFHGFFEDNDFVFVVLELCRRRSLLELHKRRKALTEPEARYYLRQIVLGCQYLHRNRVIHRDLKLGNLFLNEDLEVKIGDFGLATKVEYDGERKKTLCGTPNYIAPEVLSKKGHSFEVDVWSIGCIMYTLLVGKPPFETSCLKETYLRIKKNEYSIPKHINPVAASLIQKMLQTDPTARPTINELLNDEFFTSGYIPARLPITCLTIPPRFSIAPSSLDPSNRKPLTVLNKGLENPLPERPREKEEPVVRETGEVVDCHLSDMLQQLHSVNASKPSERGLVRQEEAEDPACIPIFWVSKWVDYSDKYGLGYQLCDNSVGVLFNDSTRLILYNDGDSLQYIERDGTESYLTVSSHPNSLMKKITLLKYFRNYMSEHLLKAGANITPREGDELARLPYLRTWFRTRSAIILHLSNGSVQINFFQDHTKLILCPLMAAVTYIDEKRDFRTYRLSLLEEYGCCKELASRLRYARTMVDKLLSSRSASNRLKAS
# protocol text: PLK1 kinase ADP-Glo assay (in vitro kinase activity)
# Assay type: biochemical
# Set-up: 2 μl of PLK1 enzyme (15 ng/well)
# cond: IC50 with 95% confidence interval; read-out: 95% CI of IC50 against PLK1
endpoint name: IC50 (nM)

molecule="COc1ccc(N2CCN(C)CC2)cc1Nc1ncc(C)c(Oc2ccccc2-n2ccnn2)n1 [IIP0945]" display_unit=nM result_value=928
molecule="COc1ccc(N2CCN(C)CC2)cc1Nc1ncc(C(F)(F)F)c(Oc2cccc3[nH]c(C(N)=O)cc23)n1 [IIP0942]" display_unit=nM result_value=37.6
molecule="COc1ccc(N2CCN(C)CC2)cc1Nc1ncc(C)c(Oc2cccc3cc(C(N)=O)sc23)n1 [IIP0943]" display_unit=nM result_value=5.06

Source of measurements: paper PMC11894060
